Hey, just so you know, these numbers are from patent US20230310631A1.

# measurementTarget: human glucagon receptor (human, UniProt P47871 26-477)
# Sequence (P47871 26-477): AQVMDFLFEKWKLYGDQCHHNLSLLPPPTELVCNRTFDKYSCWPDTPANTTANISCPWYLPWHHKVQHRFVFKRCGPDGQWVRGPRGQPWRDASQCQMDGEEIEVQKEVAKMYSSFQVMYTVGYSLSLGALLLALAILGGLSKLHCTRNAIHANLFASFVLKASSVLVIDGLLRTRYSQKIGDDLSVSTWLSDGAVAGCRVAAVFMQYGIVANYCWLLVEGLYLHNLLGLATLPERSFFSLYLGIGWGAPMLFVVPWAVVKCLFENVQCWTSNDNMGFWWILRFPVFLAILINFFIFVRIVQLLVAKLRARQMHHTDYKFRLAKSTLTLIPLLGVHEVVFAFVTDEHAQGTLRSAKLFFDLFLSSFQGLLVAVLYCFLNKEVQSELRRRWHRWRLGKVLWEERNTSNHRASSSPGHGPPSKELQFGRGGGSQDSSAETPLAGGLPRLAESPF
# method: cell-based or functional assay
Bridge positions count the residues as written; N and C are the ends. Square brackets hold non-standard residues; d marks the D form. Ends that are not written are not given here. Aib = CC(C)(N)C(=O)O
Listing of entries alongside the reported In vitro Activity (relative activity to SEQ ID NO: 1, %); cAMP assay, from EC50.
The response must be a number in % with no trailing unit.

# example entries with known answers
SQGTFTSDYSKYLDECRAKEFVQWLMNT (lactam 15-19) [glucagon derivative of SEQ ID NO: 32]: 0.7
Y[Aib]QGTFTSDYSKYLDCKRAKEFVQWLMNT (not fully specified (bridges)) [glucagon derivative of SEQ ID NO: 14]: 18.1
Y[Aib]QGTFTSDYSKCLDEKRAKEFVQWLMNT (lactam 16-20) [glucagon derivative of SEQ ID NO: 24]: 58
W[Aib]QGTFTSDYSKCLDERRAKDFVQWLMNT (lactam 16-20) [glucagon derivative of SEQ ID NO: 30]: 0.3

Query: Sample Y[Aib]QGTFTSDYSKYCDERRAKEFVQWLMNT (lactam 16-20) [glucagon derivative of SEQ ID NO: 35] — what was its In vitro Activity (relative activity to SEQ ID NO: 1, %); cAMP assay, from EC50?
Reply: 17.7
